From: patent US20100035756A1

system: Monocotyledonous and dicotyledonous test plants; assay: Herbicidal action after emergence of the plants (post-emergence herbicidal action), Example B2; assay type: in vivo; conditions: postemergent application, 125 g/ha, CHEAL, 2- to 3-leaf stage, evaluated after 2-3 weeks; 100%=total damage
measured.attribute: herbicidal damage, CHEAL (%)

CCCC1CCC(=O)C(C(=O)c2ccc(C(F)(F)F)n3c(C)nnc23)=C1O (centres unmarked) [41.6]
80
COCc1nnc2c(C(=O)C3=C(O)C4CCC(C4)C3=O)ccc(C(F)(F)F)n12 (centres unmarked) [Compound 1.16]
80
O=C(C1=C(O)C2CCC(C2)C1=O)c1ccc(C(F)(F)F)n2c(C3CC3)nnc12 (centres unmarked) [Compound 1.8]
90
CCc1nnc2c(C(=O)C3=C(O)CCCC3=O)ccc(C(F)(F)F)n12 [Compound 3.5]
90
CC1(C)C(=O)C(C(=O)c2ccc(C(F)(F)F)n3c(-c4ccc(Cl)cc4)nnc23)=C(O)C(C)(C)C1=O [Compound 5.10]
70
CC(C)c1nc2c(C(=O)C3=C(O)C4CCC(C4)C3=O)ccc(C(F)(F)F)n2n1 (centres unmarked) [2.7]
70
CCOc1nc2c(C(=O)C3=C(O)C4CCC(C4)C3=O)ccc(C(F)(F)F)n2n1 (centres unmarked) [2.209]
80
O=C(C1=C(O)C2CCC(C2)C1=O)c1ccc(C(F)(F)F)n2nc(Cl)nc12 (centres unmarked) [2.2]
80
CCc1nnc2c(C(=O)C3=C(O)C4CCC(C4)C3=O)ccc(C(F)(F)F)n12 (centres unmarked) [Compound 1.5]
80
Cc1nnc2c(C(=O)C3=C(O)CCCC3=O)ccc(C(F)(F)F)n12 [Compound 3.4]
60
CC(C)c1nnc2c(C(=O)C3=C(O)C4CCC(C4)C3=O)ccc(C(F)(F)F)n12 (centres unmarked) [Compound 1.7]
80
Cc1nnc2c(C(=O)C3C(=O)C4CCC(C4)C3=O)ccc(C(F)(F)F)n12 (centres unmarked) [Compound 1.4]
90
CC1(C)C(=O)C(C(=O)c2ccc(C(F)(F)F)n3c(Br)nnc23)=C(O)C(C)(C)C1=O [Compound 5.2]
100
Cc1nnc2c(C(=O)C3=C(O)C(C)(C)C(=O)C(C)(C)C3=O)ccc(C(F)(F)F)n12 [Compound 5.3]
80
Cc1nnc2c(C(=O)C3=C(O)C4CCC(C4)C3=O)ccc(C(F)F)n12 (centres unmarked) [Compound 1.54]
70
CC(C)c1nnc2c(C(=O)C3=C(O)CCCC3=O)ccc(C(F)(F)F)n12 [Compound 3.6]
90
COCc1nnc2c(C(=O)C3=C(O)C(C)(C)C(=O)C(C)(C)C3=O)ccc(C(F)(F)F)n12 [Compound 5.5]
80
